Recorded values, source BigSolDB 2.1.

# assayConditions: in acetone, 335 K
measurementType: solubility (mole fraction)

compound	measurementType	numericReadout
CO[C@H]1C[C@@H]2CC[C@@H](C)[C@@](O)(O2)C(=O)C(=O)N2CCCC[C@H]2C(=O)O[C@H]([C@H](C)C[C@@H]2CC[C@@H](O)[C@H](OC)C2)CC(=O)[C@H](C)/C=C(\C)[C@@H](O)[C@@H](OC)C(=O)[C@H](C)C[C@H](C)/C=C/C=C/C=C/1C	solubility (mole fraction)	0.00545

* * *

# assayConditions: in dichloromethane, 330 K

compound	solubility (mole fraction)
CO[C@H]1C[C@@H]2CC[C@@H](C)[C@@](O)(O2)C(=O)C(=O)N2CCCC[C@H]2C(=O)O[C@H]([C@H](C)C[C@@H]2CC[C@@H](O)[C@H](OC)C2)CC(=O)[C@H](C)/C=C(\C)[C@@H](O)[C@@H](OC)C(=O)[C@H](C)C[C@H](C)/C=C/C=C/C=C/1C	0.00333

* * *

# assayConditions: in methanol, 310 K

compound	solubility (mole fraction)
CO[C@H]1C[C@@H]2CC[C@@H](C)[C@@](O)(O2)C(=O)C(=O)N2CCCC[C@H]2C(=O)O[C@H]([C@H](C)C[C@@H]2CC[C@@H](O)[C@H](OC)C2)CC(=O)[C@H](C)/C=C(\C)[C@@H](O)[C@@H](OC)C(=O)[C@H](C)C[C@H](C)/C=C/C=C/C=C/1C	0.00123

* * *

# assayConditions: in ethanol, 300 K

compound	solubility (mole fraction)
CO[C@H]1C[C@@H]2CC[C@@H](C)[C@@](O)(O2)C(=O)C(=O)N2CCCC[C@H]2C(=O)O[C@H]([C@H](C)C[C@@H]2CC[C@@H](O)[C@H](OC)C2)CC(=O)[C@H](C)/C=C(\C)[C@@H](O)[C@@H](OC)C(=O)[C@H](C)C[C@H](C)/C=C/C=C/C=C/1C	0.00143

* * *

# assayConditions: in methanol, 330 K

compound	solubility (mole fraction)
CO[C@H]1C[C@@H]2CC[C@@H](C)[C@@](O)(O2)C(=O)C(=O)N2CCCC[C@H]2C(=O)O[C@H]([C@H](C)C[C@@H]2CC[C@@H](O)[C@H](OC)C2)CC(=O)[C@H](C)/C=C(\C)[C@@H](O)[C@@H](OC)C(=O)[C@H](C)C[C@H](C)/C=C/C=C/C=C/1C	0.00171

* * *

# assayConditions: in chloroform, 340 K

compound	solubility (mole fraction)
CO[C@H]1C[C@@H]2CC[C@@H](C)[C@@](O)(O2)C(=O)C(=O)N2CCCC[C@H]2C(=O)O[C@H]([C@H](C)C[C@@H]2CC[C@@H](O)[C@H](OC)C2)CC(=O)[C@H](C)/C=C(\C)[C@@H](O)[C@@H](OC)C(=O)[C@H](C)C[C@H](C)/C=C/C=C/C=C/1C	0.00458

* * *

# assayConditions: in chloroform, 335 K

compound	solubility (mole fraction)
CO[C@H]1C[C@@H]2CC[C@@H](C)[C@@](O)(O2)C(=O)C(=O)N2CCCC[C@H]2C(=O)O[C@H]([C@H](C)C[C@@H]2CC[C@@H](O)[C@H](OC)C2)CC(=O)[C@H](C)/C=C(\C)[C@@H](O)[C@@H](OC)C(=O)[C@H](C)C[C@H](C)/C=C/C=C/C=C/1C	0.00437
